meta.source: ChEMBL document CHEMBL1201862

- Test target: FAD-linked sulfhydryl oxidase ALR (Homo sapiens, UniProt P55789)
- Sequence (P55789 whole entry): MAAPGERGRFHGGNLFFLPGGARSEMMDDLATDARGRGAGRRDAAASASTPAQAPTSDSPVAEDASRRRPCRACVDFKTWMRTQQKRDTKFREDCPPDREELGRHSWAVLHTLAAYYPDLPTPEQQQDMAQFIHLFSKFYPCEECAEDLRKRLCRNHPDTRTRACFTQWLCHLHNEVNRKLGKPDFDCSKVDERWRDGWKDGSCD
- Experimental details: ALR-catalysed DTT oxidation blockers – biochemical, H2O2 detection, luminescence, cherry-pick, dose response (AID 493248)
Counter-ions that a name gives are not always drawn. Active and inactive are the calls of the source. No stated cut-off is given here; in the data, actives have a measured AC50 and inactives only a lower limit.
Observation type: AC50

Answered examples (4):
Compound | Reported value
COc1ccc(N=Nc2c(N)n[nH]c2N)cc1 | 17 µM (active)
CCN(CC)Cc1c(-c2ccccc2)nc2ccc(C)cc2c1O | 1.77 µM (active)
COc1cccc(/C=N/N2C(=O)NC3(CCCCC3)C2=O)c1O | 9.34 µM (active)
NNCCc1ccccc1 [PHENELZINE SULFATE] | 7.5 µM (active)

Input: Find the recorded AC50 belonging to COc1ccc(NC2CCCN(C(=O)c3c(C)noc3C)C2)cc1 (stereo not given) and report it.
Output: 3.46 µM (active)
